Data origin, for the record: patent EP2951180B1

Biological target: HDM2 (Homo sapiens, UniProt Q00987)
Construct: Thioredoxin (N); made in house; host or cells: E. coli strain BL21(DE3)Rosetta
Sequence (Q00987 17-125): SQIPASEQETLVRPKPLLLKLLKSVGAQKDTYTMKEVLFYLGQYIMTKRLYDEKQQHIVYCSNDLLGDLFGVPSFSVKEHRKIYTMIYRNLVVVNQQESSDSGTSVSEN
Assay: HDM2 FRET assay (inhibition of binding of FITC labeled p53-pocket peptide to HDM2)
Details: Table 11; read-out: FRET IC50

compound	IC50
C[C@@H](Nc1nc(-c2noc(=O)[nH]2)nc2nc(N3CCOC[C@H]3Cc3ccccc3)n(C[C@H]3CC[C@H](C)CC3)c12)C1CCC1	16.2 nM
C[C@@H](Nc1nc(-c2noc(=O)[nH]2)nc2nc(N3CCOC[C@@H]3c3ccccc3)n(C[C@H]3CC[C@H](C)CC3)c12)C1CCC1	10.8 nM
Cc1nc(C(C)Nc2nc3nc(-c4noc(=O)[nH]4)nc(N[C@H](C)C4CCC4)c3n2C[C@H]2CC[C@H](C)CC2)cs1 (stereo partly drawn)	3.39 nM

----------
Molecular target: HDM2 (Homo sapiens, UniProt Q00987)
Construct: Thioredoxin (N); made in house; host or cells: E. coli strain BL21(DE3)Rosetta
Test: HDM2 FRET assay (inhibition of binding of FITC labeled p53-pocket peptide to HDM2)
Conditions: FRET IC50

compound	assayed_target	IC50 (nM)
C[C@@H](Nc1nc(C(=O)O)nc2nc(N3C4CCCC3CC4)n(C[C@H]3CC[C@H](C)CC3)c12)C1CCC1 [Example 11.26]	HDM2 (Homo sapiens, UniProt Q00987)	3.57
C[C@@H](Nc1nc(C(=O)O)nc2nc(N3C4CCC3COC4)n(Cc3ccc(C(F)(F)F)cc3)c12)C1CCC1 [Example 9.76]	HDM2 (Homo sapiens, UniProt Q00987)	15.9

----------
Target: HDM2 (Homo sapiens, UniProt Q00987)
Construct: Thioredoxin (N); made in house; host or cells: E. coli strain BL21(DE3)Rosetta
Test: HDM2 FRET assay (inhibition of binding of FITC labeled p53-pocket peptide to HDM2)
Conditions: Table 22; read-out: FRET IC50
Mark each entry YES if its IC50 sits below 4 nM, and NO for all others.

molecule	classification
C[C@@H](Nc1nc(-c2noc(=O)[nH]2)nc2nc(C(O)(c3ccccc3)C(F)(F)F)n(C[C@H]3CC[C@H](C)CC3)c12)C1CCC1 (single isomer, unassigned) [Example 22.28]	NO
C[C@@H](Nc1nc(-c2noc(=O)[nH]2)nc2nc(C3(c4cccc(F)c4)CC3)n(C[C@H]3CC[C@H](C)CC3)c12)C1CCC1	NO
C[C@@H](Nc1nc(-c2noc(=O)[nH]2)nc2nc(C(C)(F)c3ccccc3)n(C[C@H]3CC[C@H](C)CC3)c12)C1CCC1 (single isomer, unassigned) [Example 22.77]	YES
COC1(c2nc3nc(-c4noc(=O)[nH]4)nc(N[C@H](C)C4CCC4)c3n2C[C@H]2CC[C@H](C)CC2)CCC1	NO
C[C@@H](Nc1nc(-c2noc(=O)[nH]2)nc2nc(C3(c4nccs4)CC3)n(C[C@H]3CC[C@H](C)CC3)c12)C1CCC1	YES
C[C@@H](Nc1nc(-c2noc(=O)[nH]2)nc2nc(C3(c4cnn(C)c4)CC3)n(C[C@H]3CC[C@H](C)CC3)c12)C1CCC1	NO
C[C@@H](Nc1nc(-c2noc(=O)[nH]2)nc2nc(C(O)C3CCCC3)n(C[C@H]3CC[C@H](C)CC3)c12)C1CCC1 (stereo partly drawn) [Example 22.41]	YES
C[C@@H](Nc1nc(-c2noc(=O)[nH]2)nc2nc(C3CCCCC3O)n(C[C@H]3CC[C@H](C)CC3)c12)C1CCC1 (stereo partly drawn)	NO
C[C@@H](Nc1nc(-c2noc(=O)[nH]2)nc2nc(C(C)(O)c3nccs3)n(C[C@H]3CC[C@H](C)CC3)c12)C1CCC1 (stereo partly drawn) [Example 22.56]	YES
C[C@@H](Nc1nc(-c2noc(=O)[nH]2)nc2nc(C(O)(CO)c3ccccc3)n(C[C@H]3CC[C@H](C)CC3)c12)C1CCC1 (single isomer, unassigned) [Example 22.60]	NO
C=C(c1nc2nc(-c3noc(=O)n3C)nc(N[C@H](C)C3CCC3)c2n1C[C@H]1CC[C@H](C)CC1)C(C)(C)C	NO
CCOC1(c2nc3nc(-c4noc(=O)[nH]4)nc(N[C@H](C)C4CCC4)c3n2C[C@H]2CC[C@H](C)CC2)CCC1	NO

----------
Target: HDM2 (Homo sapiens, UniProt Q00987)
Construct: Thioredoxin (N); made in house; host or cells: E. coli strain BL21(DE3)Rosetta
Assay: HDM2 FRET assay (inhibition of binding of FITC labeled p53-pocket peptide to HDM2)
Details: Table 7; read-out: FRET IC50
pIC50: −log10 of the molar value.

compound	pIC50
Cc1cccc(-c2nc3nc(C(=O)O)nc(N[C@H](CC(O)CO)C4CCC4)c3n2Cc2ccc(C(F)(F)F)cc2)c1 (stereo partly drawn) [Example 7.15]	7.58
COc1ccc(C)cc1-c1nc2nc(C(=O)O)nc(N[C@H](C)C3CC(F)(F)C3)c2n1Cc1ccc(C(F)(F)F)cc1 [Example 7.17]	7.23
CNC(=O)CC[C@@H](Nc1nc(C(=O)O)nc2nc(-c3cccc(C)c3)n(Cc3ccc(C(F)(F)F)cc3)c12)C1CCC1 [Example 7.13]	6.99

----------
Molecular target: HDM2 (Homo sapiens, UniProt Q00987)
Construct: Thioredoxin (N); made in house; host or cells: E. coli strain BL21(DE3)Rosetta
Experiment: HDM2 FRET assay (inhibition of binding of FITC labeled p53-pocket peptide to HDM2)
Details: 0.5 nM HDM2 (residues 17 to 125), 3nM peptide, two hour incubation at room temperature; read-out: FRET IC50
property_label: log10(IC50) (log10 of the value in nM)

compound	log10(IC50)
CCOc1nc(C(=O)O)nc2nc(-c3cccc(C)c3)n(Cc3ccc(C(F)(F)F)cc3)c12 [Example 17.1]	3.77
CC(C)[C@@H]1COCCN1c1nc2nc(-c3noc(=O)[nH]3)nc(-c3cccc(Cl)c3)c2n1C[C@H]1CC[C@H](C)CC1 [Example 16.42]	0.56
C[C@@H](Nc1nc(C(=O)O)nc2nc(-c3cc(C(C)(C)C)ccn3)n(C[C@H]3CC[C@H](C)CC3)c12)C1CCC1 [Example 15.16]	0.02
C[C@H]1CC[C@H](Cn2c(N3CCO[C@@H]4CCC[C@H]43)nc3nc(-c4n[nH]c(=O)o4)nc(-c4cccc(Cl)c4)c32)CC1 [Example 16.84]	0.39
C[C@H]1CC[C@H](Cn2c(N3CCOC[C@H]3c3ccccc3)nc3nc(-c4noc(=O)[nH]4)nc(C4CCOCC4)c32)CC1 [Example 16.167]	1.67
C[C@H]1CC[C@H](Cn2c(N3CCOC[C@H]3c3ccccc3)nc3nc(-c4noc(=O)[nH]4)nc(-c4cc(Cl)cnc4OCc4ccccc4)c32)CC1 [Example 16.161]	0.56
CC[C@H](Nc1nc2nc(-c3noc(=O)[nH]3)nc(-c3cccc(Cl)c3)c2n1C[C@H]1CC[C@H](C)CC1)c1ccccc1 [Example 16.50]	0.43
C[C@H]1COCCN1c1nc2nc(-c3noc(=O)[nH]3)nc(-c3cncc(Cl)c3)c2n1C[C@H]1CC[C@H](C)CC1 [Example 16.43]	2.38
CNC(=O)c1nc(N[C@H](C)C2CCC2)c2c(n1)nc(-c1cccc(C)c1)n2Cc1ccc(C(F)(F)F)cc1 [Example 12.30]	2.94
C[C@@H](Nc1nc(C(=O)O)nc2nc(-c3nccs3)n(C[C@H]3CC[C@H](C)CC3)c12)C1CCC1 [Example 15.11]	0.39
C[C@H](Nc1nc2nc(-c3noc(=O)[nH]3)nc(-c3cccc(Cl)c3)c2n1C[C@H]1CC[C@H](C)CC1)c1cccc(F)c1 [Example 16.49]	0.21
CC1CCCC(c2nc(-c3noc(=O)[nH]3)nc3nc(N4CCOC[C@H]4c4ccccc4)n(C[C@H]4CC[C@H](C)CC4)c23)C1 (stereo partly shown) [Example 16.169]	0.40
C[C@H]1CC[C@H](Cn2c(C3CC3)nc3nc(-c4n[nH]c(=O)o4)nc(-c4cccc(Cl)c4)c32)CC1 [Example 24.1]	1.80
CC[S+]([O-])c1nc(N[C@H](C)C2CCC2)c2c(n1)nc(N1CCOC[C@H]1c1ccccc1)n2C[C@H]1CC[C@H](C)CC1 (stereo partly shown) [Example 14.7]	1.09
C[C@H]1OCCN(c2nc3nc(-c4noc(=O)[nH]4)nc(-c4cncc(Cl)c4)c3n2C[C@H]2CC[C@H](C)CC2)[C@@H]1c1ccccc1 [Example 16.135]	-0.30
C[C@H]1CC[C@H](Cn2c(N3CCOCC34CCC4)nc3nc(-c4noc(=O)[nH]4)nc(-c4cccc(Cl)c4)c32)CC1 [Example 16.80]	0.94
C[C@H]1CC[C@H](Cn2c(N3CCO[C@@H]4CCC[C@H]43)nc3nc(-c4noc(=O)[nH]4)nc(-c4cccc(Cl)c4)c32)CC1 [Example 16.82]	0.04
C[C@H](Nc1nc2nc(-c3n[nH]c(=O)o3)nc(-c3cccc(Cl)c3)c2n1C[C@H]1CC[C@H](C)CC1)c1cccc(F)c1 [Example 16.55]	0.70
Cc1noc([C@@H]2COCCN2c2nc3nc(-c4noc(=O)[nH]4)nc(-c4cccc(Cl)c4)c3n2C[C@H]2CC[C@H](C)CC2)n1 [Example 16.116]	0.86
C[C@H]1CC[C@H](Cn2c(N3CCOCC34CC4)nc3nc(-c4noc(=O)[nH]4)nc(-c4cccc(Cl)c4)c32)CC1 [Example 16.79]	1.33
C[C@@H](Nc1nc(S(=O)(=O)CC(F)(F)F)nc2nc(N3CCOC[C@H]3c3ccccc3)n(C[C@H]3CC[C@H](C)CC3)c12)C1CCC1 [Example 14.15]	2.34
C[C@@H](Nc1nc([S+](C)[O-])nc2nc(N3CCOC[C@H]3c3ccccc3)n(C[C@H]3CC[C@H](C)CC3)c12)C1CCC1 (single isomer, unassigned) [Example 14.3]	1.76
CN(C)C(=O)[C@@H]1CCCN1c1nc2nc(-c3noc(=O)[nH]3)nc(-c3cccc(Cl)c3)c2n1C[C@H]1CC[C@H](C)CC1 [Example 16.148]	1.18
C[C@@H]1CNCCN1c1nc2nc(-c3noc(=O)[nH]3)nc(-c3cccc(Cl)c3)c2n1C[C@H]1CC[C@H](C)CC1 [Example 16.54]	1.77
C[C@H]1CC[C@H](Cn2c(N3CCOC[C@H]3c3ccccc3)nc3nc(-c4n[nH]c(=O)o4)nc(-c4cncc(Cl)c4)c32)CC1 [Example 16.35]	-0.08
